# STUDY_SYSTEM: Cytochrome P450 2C9 (Homo sapiens) (UniProt P11712)
# Sequence (P11712 whole entry, looked up): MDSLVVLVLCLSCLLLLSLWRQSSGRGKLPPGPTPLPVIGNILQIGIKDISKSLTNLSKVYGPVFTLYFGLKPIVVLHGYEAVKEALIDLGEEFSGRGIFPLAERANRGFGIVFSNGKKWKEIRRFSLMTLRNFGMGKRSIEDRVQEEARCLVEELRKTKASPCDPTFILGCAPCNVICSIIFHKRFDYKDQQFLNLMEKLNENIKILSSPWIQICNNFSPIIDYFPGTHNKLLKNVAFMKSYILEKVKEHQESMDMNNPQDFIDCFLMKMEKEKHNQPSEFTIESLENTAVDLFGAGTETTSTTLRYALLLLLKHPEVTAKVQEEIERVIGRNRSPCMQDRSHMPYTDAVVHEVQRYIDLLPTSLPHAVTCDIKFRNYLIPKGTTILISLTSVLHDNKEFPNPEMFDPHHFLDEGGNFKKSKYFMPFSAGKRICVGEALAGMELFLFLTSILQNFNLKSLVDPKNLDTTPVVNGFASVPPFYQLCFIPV
# MEASUREMENT_PROTOCOL: qHTS Assay for Inhibitors and Substrates of Cytochrome P450 2C9 (AID 883); further: nearly all actives have a fitted effect of over 60% in size
# SETTINGS: recombinant CYP2C9, luciferin-H luminescence, 60 min; series mostly up to 11.4 µM
Records with an inconclusive call do not appear. The source made the active and inactive calls. The call rests on the fitted dose curve; in most records, active means well fitted inhibition curve with a large enough effect; inconclusive means small, poorly fitted or top-dose-only effect; inactive means no such curve, though single readings can be large or run the other way.
Outcome field: choose from 1.0 for active, 0.0 for inactive

Just curious, what result did COC(=O)NC(c1cccc(F)c1)[C@@]1(C(=O)OC)CCCC1=O (stereo partly specified) get here?
0.0

Check the results log: what was the call for COc1ccc(OC2C=CC(c3ccccc3)OC2CO)cc1 (stereo unspecified) ?
0.0

Outcome? `COC(=O)[C@@]1(Cc2ccccc2)[C@H]2c3cc(C(=O)N4CCCC4)n(CCN4CNCC4=O)c3C[C@H]2CN1C(=O)c1ccccc1`
1.0

Tell me the assay call for CCN1C(C)=C(C(=O)OC)C(c2ccccc2)N2C(=O)[C@@]3(C(=O)OC)O[C@@]12C1C(=O)N(C)C(=O)C13 (stereo partly specified) please.
0.0

Entry C=C(C)C(O)/C=C/c1ccccc1OC (stereo unspecified) : call = ?
0.0

GET /call?item= CC(=O)OCC1OC(C#CC(C)(C)C)C=CC1OC(C)=O (stereo unspecified) returns the recorded outcome of this test.
0.0

Returns: the outcome recorded for `CC1(C)Oc2cc3c(cc2O1)OC(C)(C)O3` in this assay.
0.0

State the result this test recorded for C=CCC1C=CC(OC(=O)OCC)C(COC(=O)OCC)O1 (stereo unspecified) .
0.0

Hi team, can someone confirm the assay call for Cc1ccccc1OC1C=CC(c2ccccc2)OC1CO (stereo unspecified) ?
0.0

# fetch the recorded call for COC(=O)C/C=C/C(C)C(OC)c1ccccc1Br (stereo unspecified) here
0.0

Outcome logged for CCOC(=O)OCC1OC(CCc2ccccc2)CCC1Oc1ccc(OC)cc1 (stereo unspecified) in this assay:
0.0
